Tested on: Candida parapsilosis
Experiment: Antifungal activity against Candida parapsilosis MTCC 1744 after 24 hrs by well diffusion method
Format: functional
Conditions: Lodderomyces parapsilosis, MTCC 1744, 24 h
Reported MIC values follow for various compounds
measurement_type: MIC (µg/mL)

{"columns": ["compound", "assay_system", "measurement_type", "readout_number"],
 "data": [
  ["CCCCCCCCC[C@@H](O)[C@H](C)N", "Candida parapsilosis", "MIC", 4.9],
  ["Clc1ccc(COC(Cn2ccnc2)c2ccc(Cl)cc2Cl)c(Cl)c1 (centres undefined) [MICONAZOLE]", "Candida parapsilosis", "MIC", 9.9],
  ["OC(Cn1cncn1)(Cn1cncn1)c1ccc(F)cc1F [FLUCONAZOLE]", "Candida parapsilosis", "MIC", 18.8],
  ["C[C@@H]1[C@H](O)[C@@H](C)/C=C/C=C/C=C/C=C/C=C/C=C/C=C/[C@H](O[C@@H]2O[C@H](C)[C@@H](O)[C@H](N)[C@@H]2O)C[C@@H]2O[C@](O)(C[C@@H](O)C[C@@H](O)[C@H](O)CC[C@@H](O)C[C@@H](O)CC(=O)O[C@H]1C)C[C@H](O)[C@H]2C(=O)O [AMPHOTERICIN B]", "Candida parapsilosis", "MIC", 300]
]}

====

Test system: Candida albicans
Experiment: Antifungal activity against Candida albicans MTCC 3958 after 24 hrs by well diffusion method
Assay type: functional
Conditions: MTCC 3958, 24 h
Reported MIC values follow for various compounds
measurement_type: MIC (µg/mL)

{"columns": ["compound", "readout_number"],
 "data": [
  ["C[C@@H]1[C@H](O)[C@@H](C)/C=C/C=C/C=C/C=C/C=C/C=C/C=C/[C@H](O[C@@H]2O[C@H](C)[C@@H](O)[C@H](N)[C@@H]2O)C[C@@H]2O[C@](O)(C[C@@H](O)C[C@@H](O)[C@H](O)CC[C@@H](O)C[C@@H](O)CC(=O)O[C@H]1C)C[C@H](O)[C@H]2C(=O)O [AMPHOTERICIN B]", 300],
  ["CCCCCCCCC[C@@H](O)[C@H](C)N", 19.8],
  ["OC(Cn1cncn1)(Cn1cncn1)c1ccc(F)cc1F [FLUCONAZOLE]", 75],
  ["Clc1ccc(COC(Cn2ccnc2)c2ccc(Cl)cc2Cl)c(Cl)c1 (centres undefined) [MICONAZOLE]", 9.9]
]}

====

Reported MIC values follow for various compounds
Tested on: [Candida] aaseri
Test: Antifungal activity against Candida aaseri MTCC 1962 after 24 hrs by well diffusion method
Format: functional
Conditions: Yamadazyma aaseri, MTCC 1962, 24 h

{"columns": ["compound", "assay_system", "unit_abbreviation", "MIC"],
 "data": [
  ["Clc1ccc(COC(Cn2ccnc2)c2ccc(Cl)cc2Cl)c(Cl)c1 (centres undefined)", "[Candida] aaseri", "µg/mL", 9.9],
  ["C[C@@H]1[C@H](O)[C@@H](C)/C=C/C=C/C=C/C=C/C=C/C=C/C=C/[C@H](O[C@@H]2O[C@H](C)[C@@H](O)[C@H](N)[C@@H]2O)C[C@@H]2O[C@](O)(C[C@@H](O)C[C@@H](O)[C@H](O)CC[C@@H](O)C[C@@H](O)CC(=O)O[C@H]1C)C[C@H](O)[C@H]2C(=O)O", "[Candida] aaseri", "µg/mL", 300],
  ["OC(Cn1cncn1)(Cn1cncn1)c1ccc(F)cc1F", "[Candida] aaseri", "µg/mL", 75],
  ["CCCCCCCCC[C@@H](O)[C@H](C)N", "[Candida] aaseri", "µg/mL", 9.9]
]}

The measured values listed here are drawn from ChEMBL document CHEMBL2046365.
